# Test system: KM12 colon
# protocol text: NCI tumour cell line growth inhibition, 48 h
For each entry below, report its TGI value.

Requested field: TGI. Item: N#Cc1c(O)c(N=Nc2ccc(Cl)cc2)c(=O)n2c1[nH]c1ccccc12
> 100 µM

Field entry: CC(C)(CCCCC(C)(C)C1NC(=O)N1)C1NC(=O)N1
> 10 µM

Field entry: O=C(O)CCc1c2ccc(=O)c(O)c-2oc2c(O)c(O)ccc12
> 100 µM

Field entry: COC(=O)[C@@H](Cc1ccccc1)N1O[C@]12CCCC[C@@H]2NC(=O)OC(C)(C)C (stereo not given in full)
> 100 µM

Field entry: NC(=O)C(=O)C(c1ccccc1)S(=O)(=O)Cc1ccccc1 (stereo not given)
> 100 µM

---

# System: OVCAR-3 ovarian
# protocol text: NCI tumour cell line growth inhibition, 48 h; in the data active = GI50 below about 0.43 µM; inactive = the rest
Lab note: assign the record to one of true = active, false = inactive

Fill in: this test's call for COc1cc(N2CCN(C(C)C)CC2)ccc1Nc1nc(Nc2cccc(F)c2C(=O)O)c2cc[nH]c2n1 is ___
false

Field entry: CCCCNC(=O)c1cc(NCc2cc(O)ccc2O)ccc1O
false

Field entry: CCCNC(=O)c1ccc(Cl)cc1Cl
false

Field entry: OCCNCCCOc1ccc2ncnc(Nc3ccc(Oc4cccc(C(F)(F)F)c4)c(Cl)c3)c2c1
false

Field entry: COc1cc(C2C3=C(COC3=O)Nc3c2ccc2c3CCCC2)cc2c1OCO2 (stereo unspecified)
true

Field entry: C/C(=N\NC(=S)N1CC2CCC(CC2)C1)c1cccc(C)n1
true

---

# Tested on: UACC-62 melanoma
# protocol text: NCI tumour cell line growth inhibition, 48 h
For each entry below, report its TGI value.

Requested field: TGI. Item: COC(=O)[C@]1(c2cc3ccccc3[nH]2)CC2CN(CC(=O)N(C)OC)C1CC2(OC)OC (stereo not given in full)
> 100 µM

Field entry: CC(C)(CCCCC(C)(C)C1NC(=O)N1)C1NC(=O)N1
> 10 µM

Field entry: COc1cccc2c1C(=O)c1c(O)c3c(c(O)c1C2=O)C[C@@](O)(C(=O)CO)CC3OC1CC(O)C(O)C(C)O1 (stereo not given in full)
0.492 µM

Field entry: NC(N)=Nc1nc2ccc([N+](=O)[O-])cc2[nH]1
> 100 µM

Field entry: Cc1ccc(C2=C(c3ccc(C)cc3)C3(c4ccc(C)cc4)C4C(=O)c5ccccc5C(=O)C4C2(c2ccc(C)cc2)S3=O)cc1 (stereo not given)
> 100 µM

---

For each entry below, report its TGI value.
# Tested on: NCI-H226 lung
# protocol text: NCI tumour cell line growth inhibition, 48 h
The response must be a number in µM with no trailing unit.

Requested field: TGI. Item: Cc1[nH]c(-c2nc3ccccc3[nH]2)c(C)c1C(=O)NC(C)C1CCCCC1 (centres undefined)
37.3

Field entry: CC1Cc2cc(O)c(O)cc2-c2cc(O)c(O)cc2CC1C (centres undefined)
67.8

Field entry: COc1ccc(/C=C2\CN(Cc3cn(CCNc4ccnc5cc(Cl)ccc45)nn3)C/C(=C\c3ccc(OC)c(OC)c3)C2=O)cc1OC
21

Field entry: COC(=O)C(CBr)CBr
28.1

Field entry: O=C1Nc2ccccc2/C1=C\c1nc(C2CCN(S(=O)(=O)c3ccc(F)cc3)CC2)n2ccccc12
21.1

Field entry: COc1ccc(/C(Cl)=C(\c2ccc(OCCN(C)C)cc2)c2ccc(OC(=O)C(C)(C)C)cc2)cc1
25.7

---

For each entry below, report its TGI value.
# Test system: NCI-H23 lung
# protocol text: NCI tumour cell line growth inhibition, 48 h
The response must be a number in µM with no trailing unit.

Requested field: TGI. Item: O=C1C(=O)c2ccccc2C(O)=C1CCCc1ccc(C2CCCCCC2)cc1
15.8

Field entry: CC1(C)C(=O)/C=C\C(=O)C(C)(C)C(=O)/C=C\C(=O)C(C)(C)C(=O)/C=C\C(=O)C(C)(C)C(=O)/C=C\C1=O
51.6

---

# System: K-562 leukemia
# protocol text: NCI tumour cell line growth inhibition, 48 h; in the data active = GI50 below about 0.43 µM; inactive = the rest
Lab note: assign the record to one of label 1 = active, label 0 = inactive

Fill in: this test's call for C[C@]1(Cn2ccnn2)C(C(=O)O)N2C(=O)CC2S1(=O)=O (some centres undefined) is ___
label 0

Field entry: CCN(CC)CCN(Cc1ccc(F)cc1)c1ccc(CO)c(Cl)c1
label 0

Field entry: N=C(N)c1ccc(NCCOCCNc2ccc(C(=N)N)cc2)cc1
label 0

Field entry: Cc1[nH]nc2c1N=C(c1ccccc1F)c1cc(C(N)=O)ccc1N2
label 0

Field entry: CN(C)CC(C(=O)Cc1ccccc1)c1ccccc1 (centres undefined)
label 0

Field entry: COCCN1CCN(Cc2ccc(-c3n[nH]c4c3C(=O)c3c(NC(=O)NN5CCOCC5)cccc3-4)cc2)CC1
label 1

Field entry: Cc1cc(C(=O)NC(CCC(=O)O)C(=O)O)sc1CCC1CNc2nc(N)[nH]c(=O)c2C1 (centres undefined)
label 1

Field entry: C/C(=N\NC(=S)N1CC2CCC(CC2)C1)c1cccc(C)n1
label 1

Field entry: Cc1ccc(C2=Nc3c(N)ncnc3NC(c3ccc4c(c3)OCO4)C2)cc1 (centres undefined)
label 0

Field entry: COc1cc(-c2n/c(=C\c3c(O)[nH]c4cc(Cl)ccc34)cc3c2=Nc2ccccc2-3)cc(OC)c1OC
label 0

Field entry: O=[n+]1c2ccccc2n([O-])c2cc(Cl)ccc21
label 0

Field entry: Cn1c2ccccc2c2c3[nH][nH]c(=O)c3c3c4ccccc4[nH]c3c21
label 0

Field entry: C[n+]1c(-c2ccc(/C=N/NC(=O)c3ccc(C(=O)N/N=C/c4ccc(-c5cn6ccccc6[n+]5C)cc4)cc3)cc2)cn2ccccc21
label 0

Field entry: CCCCNC(=O)Oc1ccc(/C(=C(/C)Cc2ccc(OC)cc2)c2ccc(OCCN3CCCC3)cc2)cc1
label 0

---

# Test system: BT-549 breast
# protocol text: NCI tumour cell line growth inhibition, 48 h; in the data active = GI50 below about 0.43 µM; inactive = the rest
Lab note: assign the record to one of 1.0 = active, 0.0 = inactive

Fill in: this test's call for C[C@]1(Cn2ccnn2)C(C(=O)O)N2C(=O)CC2S1(=O)=O (stereo partly specified) is ___
0.0

Field entry: O=C1C(=O)c2ccccc2C(O)=C1CCCc1ccc(C2CCCCCC2)cc1
0.0

Field entry: COc1cc(C2C3=C(COC3=O)Nc3c2ccc2c3CCCC2)cc2c1OCO2 (stereo unspecified)
1.0

Field entry: CC(=O)C1=C(C)N(C)C2(O)C=CC(=O)C3=C(O)c4ccccc4C(=O)C312 (stereo unspecified)
0.0

Field entry: C=C(CC(=O)O)C(=O)O (tested in a mixture with another compound)
0.0

Field entry: CCc1cc2ncc(CN3CCN(c4ccc(C(=O)NC)nc4)CC3)cc2[nH]c1=O
0.0

---

For each entry below, report its TGI value.
# System: NCI-H23 lung
# protocol text: NCI tumour cell line growth inhibition, 48 h

Requested field: TGI. Item: N#Cc1c(O)cc(=O)n2c1[nH]c1ccccc12
> 100 µM

Field entry: CC(C)(C)c1cc(OCc2nnc3sc(=S)[nH]n23)c(Cl)cc1OCc1nnc2sc(=S)[nH]n12
95.5 µM

Field entry: CCCCCCOc1ccc(C(=O)N(C)O)cc1
65.6 µM

Field entry: O=[N+]([O-])c1ccc(/C=C/c2csnn2)cc1
> 100 µM

Field entry: Cc1[nH]c(-c2nc3ccccc3[nH]2)c(C)c1C(=O)NC(C)C1CCCCC1 (stereo unspecified)
31.5 µM

Field entry: C[CH2][Ge]([CH2]C)([CH2]C)[O]C(=O)CCC(=O)[O][Ge]([CH2]C)([CH2]C)[CH2]C
> 100 µM

Field entry: O=C1NC(N2CCCCC2)=N/C1=C\c1ccccc1O
> 100 µM

Field entry: COc1cc2c(cc1OC)NC(=O)NC(Cc1ccc3c(c1)OCO3)CC2 (stereo unspecified)
> 100 µM

Field entry: CC1=C(C(=O)Nc2ccc([N+](=O)[O-])cc2)C(c2ccc3c(c2)OCO3)C(C(=O)Nc2ccc([N+](=O)[O-])cc2)=C(C)N1
57.9 µM

Field entry: Cc1ccc(/C=C2\CCCC(CN(C)C)C2=O)cc1 (stereo unspecified)
4.97 µM

Field entry: Nc1c(-c2ccccc2[N+](=O)[O-])nc2ccccn12
> 100 µM

Field entry: C/C(=N\NC(=S)N1CC2CCC(CC2)C1)c1cccc(C)n1
19.4 µM

Field entry: O=C(CC(=O)N1N=C(N(c2ccccc2)c2ccccc2)CC1c1ccccc1)Nc1ccc(Cl)cc1 (stereo unspecified)
> 100 µM

Field entry: C(=N\OCCc1ccccc1)/c1cccnc1
> 100 µM

Field entry: O=C(N/N=C/c1ccccc1O)c1ccccc1Nc1ccccc1C(=O)N/N=C/c1ccccc1O
> 100 µM

Field entry: COc1ccc(/C=C2\CN(Cc3cn(CCNc4ccnc5cc(Cl)ccc45)nn3)C/C(=C\c3ccc(OC)c(OC)c3)C2=O)cc1OC
37.8 µM

Field entry: Nc1nc2ccc(OCC(O)CN3CCCCC3)cc2[n+]([O-])n1 (stereo unspecified)
> 100 µM

Field entry: CCN(CC)C(=O)N1CCN(C=S)CC1
> 100 µM

Field entry: Oc1cccc2cc(Br)cnc12
> 72.8 µM

Field entry: COc1ccc(/C=C/C(=O)CC(=O)/C=C/c2ccc(OC)cc2)cc1
95.1 µM

Field entry: C=C1C2CC(OC(C)=O)C3(C)C(c4ccoc4)OC(=O)[C@@H](O)[C@]13OC1C[C@H](OC(C)=O)C(C)(C)[C@H](CC(=O)OC)[C@]12C (stereo partly specified)
> 100 µM
